Entries and their pIC50 values follow.
Molecular target: beta-catenin/TCF4 engagement (Homo sapiens, UniProt P35222)
Construct: expressed in transfected cells; host or cells: HEK293
Sequence (P35222 whole entry): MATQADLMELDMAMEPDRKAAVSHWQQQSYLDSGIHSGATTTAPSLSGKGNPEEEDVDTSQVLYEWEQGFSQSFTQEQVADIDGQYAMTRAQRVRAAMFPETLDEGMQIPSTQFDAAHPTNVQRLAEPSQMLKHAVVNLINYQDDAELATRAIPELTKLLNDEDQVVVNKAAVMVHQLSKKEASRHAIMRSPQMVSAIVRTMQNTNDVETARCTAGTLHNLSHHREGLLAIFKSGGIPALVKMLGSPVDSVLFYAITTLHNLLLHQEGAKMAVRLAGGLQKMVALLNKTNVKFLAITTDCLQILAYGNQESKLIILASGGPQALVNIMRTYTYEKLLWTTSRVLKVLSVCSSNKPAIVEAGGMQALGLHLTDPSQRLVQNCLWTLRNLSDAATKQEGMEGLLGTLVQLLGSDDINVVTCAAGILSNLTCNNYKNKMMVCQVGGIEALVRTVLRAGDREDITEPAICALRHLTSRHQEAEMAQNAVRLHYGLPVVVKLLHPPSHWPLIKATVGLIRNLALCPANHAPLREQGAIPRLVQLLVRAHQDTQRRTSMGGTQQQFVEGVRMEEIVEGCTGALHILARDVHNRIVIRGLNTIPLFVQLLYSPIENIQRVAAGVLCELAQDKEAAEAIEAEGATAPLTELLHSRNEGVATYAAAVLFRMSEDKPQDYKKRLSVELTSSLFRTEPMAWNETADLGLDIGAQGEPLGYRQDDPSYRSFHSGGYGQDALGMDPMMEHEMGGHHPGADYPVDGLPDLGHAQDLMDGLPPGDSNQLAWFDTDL
Assay: Nano-BRET target engagement assay (B-cat-Halo & TCF4-Luc in HEK293 cells)
Type: cell-based
Conditions: absolute IC50; read-out: NanoBRET Abs IC50
pIC50: −log10 of the molar value.
Measurement Name: pIC50

| Compound | Sign | Measured Result |
| --- | --- | --- |
| CCN(CC(=O)O)C[C@@H]1NC(=O)[C@H](CC(=O)O)NC(=O)C2(CCCC=CCCCCCC[C@@](C)(C(=O)N[C@@H](Cc3ccsc3)C(=O)N[C@@H](Cc3csc4ccccc34)C(=O)N[C@@H](CCC(N)=O)C(N)=O)NC(=O)[C@H](CC(N)=O)NC(=O)[C@H](Cc3ccccc3)NC(=O)[C@H](C)NC(=O)[C@H](C)NC1=O)CCCC=CC[C@]1(CCCN1C(C)=O)C(=O)N[C@@H](CC(=O)O)C(=O)N[C@@H](CC(C)(C)C)C(=O)N2 (some centres unmarked) [I-1627] | < | 4.70 |
| CC(=O)N1CCC[C@]12CC=CCCCC1(CCCC=CCCCOC(=O)N3CC[C@@](C(=O)N[C@@H](Cc4ccsc4)C(=O)N[C@@H](Cc4csc5ccccc45)C(=O)N[C@@H](CCC(N)=O)C(N)=O)(C3)NC(=O)[C@H](CC(C)C)NC(=O)[C@H](Cc3ccccc3)NC(=O)[C@H](CCCN3CCC(F)(F)CC3)NC(=O)[C@H](C)NC(=O)[C@H](CC(=O)O)NC(=O)[C@H](CC(=O)O)NC1=O)NC(=O)[C@H](CC(C)(C)C)NC(=O)[C@H](CC(=O)O)NC2=O (some centres unmarked) [I-1502] | < | 4.70 |
| CCCC[C@@H]1NC(=O)[C@H](Cc2ccccc2)NC(=O)[C@H](C)NC(=O)[C@H](C)NC(=O)[C@H](Cc2cccc(C(=O)O)c2)NC(=O)[C@H](CC(=O)O)NC(=O)C2(CCCC=CCCCOC(=O)N3CC[C@@](C(=O)N[C@@H](Cc4ccsc4)C(=O)N[C@@H](Cc4csc5ccccc45)C(=O)N[C@@H](CCC(N)=O)C(N)=O)(C3)NC1=O)CCCC=CC[C@]1(CCCN1C(C)=O)C(=O)N[C@@H](CC(=O)O)C(=O)N[C@@H](CC(C)C)C(=O)N2 (some centres unmarked) [I-1407] | = | 5.38 |
| CC(=O)N1CCC[C@]12CC=CCCCC1(CCCC=CCCCOC(=O)N3CC[C@@](C(=O)N[C@@H](Cc4ccccc4C(F)(F)F)C(=O)N[C@@H](Cc4csc5ccccc45)C(=O)N[C@@H](CCC(=O)N(C)C)C(N)=O)(C3)NC(=O)[C@H](CC(C)C)NC(=O)[C@H](Cc3ccccc3)NC(=O)[C@H](C)NC(=O)[C@H](C)NC(=O)[C@H](Cc3cccc(C(=O)O)c3)NC(=O)[C@H](CC(=O)O)NC1=O)NC(=O)[C@H](CC(C)(C)C)NC(=O)[C@H](CC(=O)O)NC2=O (some centres unmarked) [I-2532] | = | 5.35 |
| CC(=O)N1CCC[C@]12CC=CCCCC1(CCCC=CCCCOC(=O)N3CC[C@@](C(=O)N[C@@H](Cc4ccsc4)C(=O)N[C@@H](Cc4csc5ccccc45)C(=O)N[C@@H](Cc4c[nH]cn4)C(N)=O)(C3)NC(=O)[C@H](CC(N)=O)NC(=O)[C@H](Cc3ccccc3)NC(=O)[C@H](C)NC(=O)[C@H](C)NC(=O)[C@H](CCC(=O)O)NC(=O)[C@H](CC(=O)O)NC1=O)NC(=O)[C@H](CC(C)(C)C)NC(=O)[C@H](CC(=O)O)NC2=O (some centres unmarked) [I-697] | = | 4.83 |

----------
Experiment: CHI Log D procedure
Assay type: physicochemical
Details: pH 7.4, CHI Log D
Below, each entry is listed alongside its reported logD.
Measurement Name: logD

| Compound | Measured Result |
| --- | --- |
| CC(=O)N1CCC[C@]12CC=CCCCC1(CCCC=CCCCOC(=O)N3CC[C@@](C(=O)N[C@@H](Cc4ccsc4)C(=O)N[C@@H](Cc4csc5ccccc45)C(=O)N[C@@H](Cc4c[nH]cn4)C(N)=O)(C3)NC(=O)[C@H](CC(N)=O)NC(=O)[C@H](Cc3ccccc3)NC(=O)[C@H](C)NC(=O)[C@H](CCCCNC(=O)Cn3cc(CNC(=O)c4ccc5c(c4)C4(OC5=O)c5ccc(O)cc5Oc5cc(O)ccc54)nn3)NC(=O)[C@H](CC(=O)O)NC(=O)[C@H](CC(=O)O)NC1=O)NC(=O)[C@H](CC(C)(C)C)NC(=O)[C@H](CC(=O)O)NC2=O (stereo partly drawn) | 1.62 |
| CC(=O)N1CCC[C@]12CC=CCCCC1(CCCC=CCCCOC(=O)N3CC[C@@](C(=O)N[C@@H](Cc4ccsc4)C(=O)N[C@@H](Cc4csc5ccccc45)C(=O)N[C@@H](CCC(N)=O)C(=O)N[C@@H](C)C(=O)N[C@@H](C)C(=O)N[C@H](C)C(N)=O)(C3)NC(=O)[C@H](CC(N)=O)NC(=O)[C@H](Cc3ccccc3)NC(=O)[C@H](C)NC(=O)[C@H](C)NC(=O)[C@H](CC(=O)O)NC(=O)[C@H](CC(=O)O)NC1=O)NC(=O)[C@H](CC(C)(C)C)NC(=O)[C@H](CC(=O)O)NC2=O (stereo partly drawn) | 2 |
| CC(=O)N1CCC[C@]12CC=CCCCC1(CCCC=CCCCOC(=O)N3CC[C@@](C(=O)N[C@@H](Cc4ccsc4)C(=O)N[C@@H](Cc4csc5ccccc45)C(=O)N[C@@H](CCC(N)=O)C(N)=O)(C3)NC(=O)[C@H](Cc3ccccc3)NC(=O)[C@H](Cc3ccccc3)NC(=O)[C@H](C)NC(=O)[C@H](CCCCNC(=O)c3ccc(-n4cc(CNC(=O)c5ccc6c(c5)C5(OC6=O)c6ccc(O)cc6Oc6cc(O)ccc65)nn4)cc3)NC(=O)[C@H](CC(C)C)NC(=O)[C@H](CC(=O)O)NC1=O)NC(=O)[C@H](CC(C)(C)C)NC(=O)[C@H](CC(=O)O)NC2=O (stereo partly drawn) | 1.91 |
| CC(=O)N1CCC[C@]12CC=CCCCC1(CCCC=CCCCOC(=O)N3CC[C@@](C(=O)N[C@@H](Cc4ccsc4)C(=O)N[C@@H](Cc4csc5ccccc45)C(=O)N[C@@H](CCC(N)=O)C(=O)N[C@H](C)C(=O)N[C@@H](C)C(=O)N[C@@H](C)C(N)=O)(C3)NC(=O)[C@H](CC(N)=O)NC(=O)[C@H](Cc3ccccc3)NC(=O)[C@H](C)NC(=O)[C@H](C)NC(=O)[C@H](CC(=O)O)NC(=O)[C@H](CC(=O)O)NC1=O)NC(=O)[C@H](CC(C)(C)C)NC(=O)[C@H](CC(=O)O)NC2=O (stereo partly drawn) | 1.92 |
| CC(=O)N1CCC[C@]12CC=CCCCC1(CCCC=CCCCCCC[C@@](C)(C(=O)N[C@@H](Cc3ccsc3)C(=O)N[C@@H](Cc3csc4ccccc34)C(=O)N[C@@H](CCC(N)=O)C(=O)N[C@H](C)C(=O)N[C@H](C)C(=O)N[C@H](C)C(N)=O)NC(=O)[C@H](CC(N)=O)NC(=O)[C@H](Cc3ccccc3)NC(=O)[C@H](C)NC(=O)[C@H](C)NC(=O)[C@H](CC(=O)O)NC(=O)[C@H](CC(=O)O)NC1=O)NC(=O)[C@H](CC(C)(C)C)NC(=O)[C@H](CC(=O)O)NC2=O (stereo partly drawn) | 2.26 |
| CC(=O)N1CCC[C@]12CC=CCCCC1(CCCC=CCCCOC(=O)N3CC[C@@](C(=O)N[C@@H](Cc4ccsc4)C(=O)N[C@@H](Cc4csc5ccccc45)C(=O)N[C@@H](CCC(N)=O)C(=O)N[C@H](C)C(=O)N[C@H](C)C(=O)N[C@H](C)C(N)=O)(C3)NC(=O)[C@H](CC(N)=O)NC(=O)[C@H](Cc3ccccc3)NC(=O)[C@H](C)NC(=O)[C@H](C)NC(=O)[C@H](CC(=O)O)NC(=O)[C@H](CC(=O)O)NC1=O)NC(=O)[C@H](CC(C)(C)C)NC(=O)[C@H](CC(=O)O)NC2=O (stereo partly drawn) | 1.89 |
| CC(=O)N1CCC[C@]12CC=CCCCC1(CCCC=CCCCCCC[C@@](C)(C(=O)N[C@@H](Cc3ccccc3)C(=O)N[C@@H](Cc3csc4ccccc34)C(=O)N[C@@H](CCC(N)=O)C(N)=O)NC(=O)[C@H](C(C)C)NC(=O)[C@H](CC3CCCC3)NC(=O)[C@H](C)NC(=O)[C@H](C)NC(=O)[C@H](CCC(=O)O)NC(=O)[C@H](CC(=O)O)NC1=O)NC(=O)[C@H](C)NC(=O)[C@H](CC(=O)O)NC2=O (stereo partly drawn) | 2.52 |
| CC(=O)N1CCC[C@]12CC=CCCCC1(CCCC=CCCCCCC[C@@](C)(C(=O)N[C@@H](Cc3ccccc3)C(=O)N[C@@H](Cc3c[nH]c4ccccc34)C(=O)N[C@@H](CO)C(N)=O)NC(=O)[C@H](CO)NC(=O)[C@H](Cc3ccccc3)NC(=O)[C@H](C)NC(=O)[C@H](C)NC(=O)[C@H](CC(=O)O)NC(=O)[C@H](CC(=O)O)NC1=O)NC(=O)[C@H](C)NC(=O)[C@H](CC(=O)O)NC2=O (stereo partly drawn) | 2.12 |
| CC(=O)N1CCC[C@]12CC=CCCCC1(CCCC=CCCCOC(=O)N3CC[C@@](C(=O)N[C@@H](Cc4ccsc4)C(=O)N[C@@H](Cc4csc5ccccc45)C(N)=O)(C3)NC(=O)[C@H](CC(N)=O)NC(=O)[C@H](Cc3ccccc3)NC(=O)[C@H](C)NC(=O)[C@H](C)NC(=O)[C@H](Cc3c[nH]cn3)NC(=O)[C@H](CC(=O)O)NC1=O)NC(=O)[C@H](CC(C)(C)C)NC(=O)[C@H](CC(=O)O)NC2=O (stereo partly drawn) | 2.28 |
